Experiment: thallium influx changes without GIRK channels – cell-based, HEK-293 rmGlu8, no GIRK, thallium flux, counter-screen for GIRK activator project, confirmation (AID 623868);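 further: extra codes mark interference with 3 for fluorescent and 4 for baseline rise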
Conditions: thallium flux fluorescence, at 10 µM, actives lie on both sides, codes: 1 enhancer, -1 blocker, 0 none, thallium stimulus containing EC20 glutamate
Screen size: about 2,100 compounds; about 760 (36%) were called active. Not all results are given here.
Measure Name: manual score
Field format: numeric only.

INSERT INTO measurements (molecule, reported_measurement) VALUES
  ('COC(=O)c1c(NC(=O)Cc2cccs2)sc(C(=O)NC2CCCCC2)c1C', 0),
  ('CC1CCc2c(sc(NS(=O)(=O)c3ccccc3)c2C(=O)OC(C)C)C1 (stereo not given)', 1);

# manual score of Fc1ccc2nc(-c3ccccc3)nc(SCc3nnc(-c4ccccc4)o3)c2c1 = 1

// recorded manual score for CC(C)OC(=O)c1c(NS(=O)(=O)c2ccccc2)sc2c1CCCC2 : 1

Record O=C(N/N=C\c1cc(Br)c(Br)o1)c1cncc(Br)c1 . Reported manual score: 1

Query COc1cccc(NC(=O)Cn2cc3c(n2)CCCCC3)c1 yields manual score of 0

manual score measured on CCNC(=S)N/N=C1\CCCCc2ccccc21 = 0.5

====

Experiment: thallium influx changes without GIRK channels – cell-based, HEK-293 rmGlu8, no GIRK, thallium flux, counter-screen for GIRK activator project, confirmation (AID 623868);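 further: extra codes mark interference with 3 for fluorescent and 4 for baseline rise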
Conditions: thallium flux fluorescence, at 10 µM, actives lie on both sides, codes: 1 enhancer, -1 blocker, 0 none, thallium stimulus containing EC20 glutamate
About 760 (36%) of roughly 2,100 compounds were called active.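 The calls were made as follows: active = thallium-flux fluorescence traces judged by eye to show enhanced or reduced glutamate response, manual score 1 or -1, so both directions (some results past the limit were not filed as active); inactive = the rest, including fluorescent or raised-baseline compounds.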 Only a sample is shown.
Outcomes you can answer with include only these: yes = active, no = inactive

Observe how each entry below is paired with its result.
INSERT INTO assay_data (compound, category) VALUES
  ('O=c1sc(N2CCN(c3ccccc3F)CC2)nc2ccsc12', 'no'),
  ('COc1ccccc1C(=O)NNC(=S)NC(=O)c1sc2ccccc2c1Cl', 'yes'),
  ('Cc1ccc(C(=O)NC2(C(F)(F)F)N=C3SCCN3C2=O)cc1 (stereo not given)', 'no'),
  ('COC(=O)c1ccc(CSc2nnc(Nc3ccccc3OC)s2)o1', 'no'),
  ('CCCCN(CCCC)S(=O)(=O)c1ccc(NC(=O)c2ccc([N+](=O)[O-])cc2Cl)cc1', 'no');

So what was the verdict on COCCN=c1scc(-c2cccs2)n1/N=C/c1ccc(O)c(O)c1O in this test? no

Would you mind telling me which call this test gave CN=C1S/C(=C\c2cc(C)n(-c3ccccc3F)c2C)C(=O)N1C ? no

Could you check what this test reported for CCOC(=O)Cn1c(=N)n(CCOc2cccc(C)c2)c2ccccc21 ? no

Dear all, I need the recorded test outcome for COc1cccc(/C=N/n2c(-c3cccs3)n[nH]c2=S)c1 , thank you. yes

Any idea what this test logged for CCn1nc(C(=O)OCC(=O)N2CCc3ccccc32)c2ccccc2c1=O ? yes

====

Experiment: thallium influx changes without GIRK channels – cell-based, HEK-293 rmGlu8, no GIRK, thallium flux, counter-screen for GIRK activator project, confirmation (AID 623868);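 further: extra codes mark interference with 3 for fluorescent and 4 for baseline rise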
Conditions: thallium flux fluorescence, at 10 µM, actives lie on both sides, codes: 1 enhancer, -1 blocker, 0 none, thallium stimulus containing EC20 glutamate
About 760 (36%) of roughly 2,100 compounds were called active.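 Rule for the calls: active = thallium-flux fluorescence traces judged by eye to show enhanced or reduced glutamate response, manual score 1 or -1, so both directions (some results past the limit were not filed as active); inactive = the rest, including fluorescent or raised-baseline compounds.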 A selection follows.
Tick one outcome: active, inactive

INSERT INTO assay_data (smiles_notation, category) VALUES
  ('O=C(NC(=S)N1CCN(c2ccc(C(F)(F)F)cc2[N+](=O)[O-])CC1)c1cccs1', 'active'),
  ('CCCCCCCCCn1c2c(c(=N)c3c1CCC3)CCC2', 'inactive');

Could you now look at the following compound, please?
Give the logged outcome of this assay for the following compound: O=C(O/N=C\c1ccc(N2CCCCC2)c([N+](=O)[O-])c1)c1c(F)cccc1F inactive
